Where these numbers come from: ChEMBL document CHEMBL3751666

# System: Aspergillus clavatus
# PROCEDURE DETAILS: Antifungal activity against Aspergillus clavatus by broth micro-dilution method
# Assay type: functional

CHEM SMILES	SYSTEM TESTED	MIC, µg/mL
Cc1cccc2sc(NC(=O)COc3cc4cc(c3)Oc3cc(c([N+](=O)[O-])cc3[N+](=O)[O-])Oc3cc(OCC(=O)Nc5nc6c(C)cccc6s5)cc(c3)Oc3cc(c([N+](=O)[O-])cc3[N+](=O)[O-])O4)nc12	Aspergillus clavatus	12.5
O=C(COc1cc2cc(c1)Oc1cc(c([N+](=O)[O-])cc1[N+](=O)[O-])Oc1cc(OCC(=O)Nc3nc4ccc(Br)cc4s3)cc(c1)Oc1cc(c([N+](=O)[O-])cc1[N+](=O)[O-])O2)Nc1nc2ccc(Br)cc2s1	Aspergillus clavatus	25
O=C(COc1cc2cc(c1)Oc1cc(c([N+](=O)[O-])cc1[N+](=O)[O-])Oc1cc(OCC(=O)N(c3ccccc3)c3ccccc3)cc(c1)Oc1cc(c([N+](=O)[O-])cc1[N+](=O)[O-])O2)N(c1ccccc1)c1ccccc1	Aspergillus clavatus	12.5
O=C(Oc1cc2cc(c1)Oc1cc(c([N+](=O)[O-])cc1[N+](=O)[O-])Oc1cc(OC(=O)c3cccc4ccccc34)cc(c1)Oc1cc(c([N+](=O)[O-])cc1[N+](=O)[O-])O2)c1cccc2ccccc12	Aspergillus clavatus	12.5
